Hello, the source for this data is the supplement of paper PMC6555819, in case you need it.

Tested on: RARg homodimer (NR concentration 270 nM)
Assay: PBM binding z-score (relative to random genomic background probes); higher = stronger binding; sequences stand for … in GC…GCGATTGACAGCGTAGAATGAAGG
Assign TRUE to entries whose PBM binding z-score meets or exceeds 4; assign FALSE to the rest.

Consider the worked cases shown below.
INSERT INTO measurements (seq, class_name) VALUES
  ('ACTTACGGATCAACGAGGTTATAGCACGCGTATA', 'FALSE'),
  ('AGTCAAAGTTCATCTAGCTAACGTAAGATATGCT', 'TRUE'),
  ('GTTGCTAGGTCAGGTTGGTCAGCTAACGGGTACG', 'TRUE');

Q. Decide: PBM binding z-score of TGTTGTAGATCAAGCAGGTTAAGAAAGCCTGAGT >= 4?
A. FALSE

Q. How about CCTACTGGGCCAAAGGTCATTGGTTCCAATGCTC ?
A. TRUE
